Biological target: T1, LmexRPA1 DBD-AB (Leishmania mexicana, UniProt E9B001 E9B001:1-258)
T1 sequence: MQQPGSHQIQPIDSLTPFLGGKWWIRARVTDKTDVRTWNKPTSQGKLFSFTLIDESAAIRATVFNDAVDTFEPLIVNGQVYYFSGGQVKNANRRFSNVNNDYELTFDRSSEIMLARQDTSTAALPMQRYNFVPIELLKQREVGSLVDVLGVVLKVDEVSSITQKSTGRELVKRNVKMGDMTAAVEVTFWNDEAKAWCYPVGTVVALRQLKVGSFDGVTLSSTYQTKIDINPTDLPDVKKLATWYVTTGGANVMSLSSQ
Assay: MST; 10 mM MgCl2, 10 mM NaCl, Tris pH 7.5, 22 C; not inhibited by JC-229
Settings: tags: N-terminal 6xHis, pET28a (pSR16), E. coli; label: 5' Cy5
Quantity Name: Kd
Write your answer as a measured quantity: the number, then the unit.

# input Give the measured Kd of TTTTTTTTTTTTTTTTTTTTTTTTTTTTTTTT (ssDNA) [5'Cy5-dT32] .
# output 12.6 nM

Data origin, for the record: patent US20250188033A1
